Where do these numbers come from? They come from paper PMC8759726.

Tested on: HCT-116 (human colorectal carcinoma) cell line
test_protocol: MTT cytotoxicity assay, HCT-116
Format: cell-based
stated_conditions: Homo sapiens, HCT-116, 48 h, 48 h incubation, mean ± SD
metric: IC50 (µM)
Express it in µM; write the number only.

Give HCT-116 (human colorectal carcinoma) cell line IC50 for CC(=O)OC1COC(n2cc(CSc3nc4sc5c(c4c(=O)n3N)CCC5)nn2)C(OC(C)=O)C1OC(C)=O (stereo not shown)
8.6

Give HCT-116 (human colorectal carcinoma) cell line IC50 for CC(=O)OCC1OC(OCc2cn(CCCCSc3nc4sc5c(c4c(=O)n3N)CCC5)nn2)C(OC(C)=O)C(OC(C)=O)C1OC(C)=O (stereo not shown)
8.1

Give HCT-116 (human colorectal carcinoma) cell line IC50 for CC(=O)OCC1OC(OCc2cn(CCSc3nc4sc5c(c4c(=O)n3N)CCC5)nn2)C(OC(C)=O)C(OC(C)=O)C1OC(C)=O (stereo not shown)
8.7

Give HCT-116 (human colorectal carcinoma) cell line IC50 for C#CCSc1nc2sc3c(c2c(=O)n1N)CCC3
8.6

Give HCT-116 (human colorectal carcinoma) cell line IC50 for Nn1c(SCc2cn([C@@H]3OC[C@@H](O)[C@H](O)[C@H]3O)nn2)nc2sc3c(c2c1=O)CCC3
8.7

Give HCT-116 (human colorectal carcinoma) cell line IC50 for COc1cccc2c1C(=O)c1c(O)c3c(c(O)c1C2=O)C[C@@](O)(C(=O)CO)C[C@@H]3O[C@H]1C[C@H](N)[C@H](O)[C@H](C)O1 [Doxorubicin, reference compound]
7.8

Give HCT-116 (human colorectal carcinoma) cell line IC50 for CC(=O)OC1COC(OCc2cn(CCSc3nc4sc5c(c4c(=O)n3N)CCC5)nn2)C(OC(C)=O)C1OC(C)=O (stereo not shown)
8.9

* * *

metric: melting point

I have this molecule here, CC(=O)OC[C@H]1O[C@@H](n2cc(CSc3nc4sc5c(c4c(=O)n3N)CCC5)nn2)[C@H](OC(C)=O)[C@@H](OC(C)=O)[C@@H]1OC(C)=O [Compound 4] , and I need its recorded melting point.
151 to 152 °C

I have this molecule here, CC(=O)OC1COC(n2cc(CSc3nc4sc5c(c4c(=O)n3N)CCC5)nn2)C(OC(C)=O)C1OC(C)=O (stereo not drawn) [Compound 5] , and I need its recorded melting point.
155 to 156 °C

I have this molecule here, Nn1c(SCc2cn([C@@H]3OC[C@@H](O)[C@H](O)[C@H]3O)nn2)nc2sc3c(c2c1=O)CCC3 [Compound 7] , and I need its recorded melting point.
189 to 190 °C

I have this molecule here, CC(=O)OCC1OC(OCc2cn(CCSc3nc4sc5c(c4c(=O)n3N)CCC5)nn2)C(OC(C)=O)C(OC(C)=O)C1OC(C)=O (stereo not drawn) [Compound 13] , and I need its recorded melting point.
159 to 160 °C

I have this molecule here, CC(=O)OCC1OC(OCc2cn(CCCCSc3nc4sc5c(c4c(=O)n3N)CCC5)nn2)C(OC(C)=O)C(OC(C)=O)C1OC(C)=O (stereo not drawn) [Compound 17] , and I need its recorded melting point.
159 to 160 °C

I have this molecule here, CC(=O)OCC1OC(OCc2cn(CCSc3nc4sc5c(c4c(=O)n3N)CCC5)nn2)C(OC(C)=O)C(OC(C)=O)C1OC(C)=O (stereo not drawn) [Compound 14] , and I need its recorded melting point.
156 to 157 °C

* * *

Tested on: HCT-116 (human colorectal carcinoma) cell line
test_protocol: MTT cytotoxicity assay, HCT-116
Type: cell-based
stated_conditions: 48 h incubation, mean ± SD
Provide the recorded IC50 for the entries that follow.
Express it in µM; write the number only.

I have this compound here, CC(=O)OCC1OC(OCc2cn(CCCCSc3nc4sc5c(c4c(=O)n3N)CCC5)nn2)C(OC(C)=O)C(OC(C)=O)C1OC(C)=O (centres unmarked) , and I need its recorded IC50.
8.4

I have this compound here, CC(=O)OCC1OC(OCc2cn(CCSc3nc4sc5c(c4c(=O)n3N)CCC5)nn2)C(OC(C)=O)C(OC(C)=O)C1OC(C)=O (centres unmarked) , and I need its recorded IC50.
8.8

* * *

metric: melting point

I have this compound here, CC(=O)OC1COC(OCc2cn(CCSc3nc4sc5c(c4c(=O)n3N)CCC5)nn2)C(OC(C)=O)C1OC(C)=O (stereo not drawn) , and I need its recorded melting point.
153 to 154 °C

I have this compound here, CC(=O)OCC1OC(OCc2cn(CCCCSc3nc4sc5c(c4c(=O)n3N)CCC5)nn2)C(OC(C)=O)C(OC(C)=O)C1OC(C)=O (stereo not drawn) [Compound 16] , and I need its recorded melting point.
163 to 164 °C

I have this compound here, C#CCSc1nc2sc3c(c2c(=O)n1N)CCC3 , and I need its recorded melting point.
181 to 182 °C
